Target desc: T1, human corticotrophin releasing hormone receptor type 2 (CRHR2) (human, UniProt Q13324 1-411)
T1 sequence (looked up): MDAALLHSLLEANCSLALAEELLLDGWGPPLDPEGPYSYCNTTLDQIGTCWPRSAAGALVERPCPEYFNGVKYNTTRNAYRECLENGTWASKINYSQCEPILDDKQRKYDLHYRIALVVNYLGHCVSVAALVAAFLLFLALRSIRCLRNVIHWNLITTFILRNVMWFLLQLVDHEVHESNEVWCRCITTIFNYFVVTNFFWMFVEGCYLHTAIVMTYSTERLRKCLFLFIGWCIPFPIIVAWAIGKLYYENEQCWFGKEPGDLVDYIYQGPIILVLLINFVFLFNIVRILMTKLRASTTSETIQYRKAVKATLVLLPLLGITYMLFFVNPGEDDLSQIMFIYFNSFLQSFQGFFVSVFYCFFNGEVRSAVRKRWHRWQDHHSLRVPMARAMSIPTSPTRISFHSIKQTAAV
Protocol details: cell-based or functional assay
Where no end group is shown, it is not given here.
Outcome measure: Log DR (log10)

Binder	Measured number
TKFTLSLDVPCNIMNLLFNIAKAKNLRAQAAANAHLMAQI-NH2 [Cys-variant stresscopin-like peptide SEQ ID NO: 12]	1.72
TKFTLSLDVPTNIMNLLFNIAKAKNLRAQAAANACLMAQI (NES-PEG (about 20 kDa) on Cys 35; C-terminal amide (-NH2)) [Pegylated Cys-variant stresscopin-like peptide with NES linker and PEG about 20 kDa SEQ ID NO: 89]	0.98

[a] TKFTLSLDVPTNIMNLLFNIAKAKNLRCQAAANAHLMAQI (NES-PEG MW5000 on Cys 28; C-terminal amide (-NH2)) [Pegylated Cys-variant stresscopin-like peptide, NES-PEG MW5000, SEQ ID NO: 96]
[b] TKFTLSLDVPTNIMNLLFNIAKAKNLRAQAAANAHLMAQC-NH2 [Cys-variant stresscopin-like peptide SEQ ID NO: 41]
(Q) Kindly compare a with b and tell me which has the lower Log DR figure. # reply format: chosen label
(A) a
(a: 1 log10, b: 2.07 log10)
